B1: tRNA (parent)
chain: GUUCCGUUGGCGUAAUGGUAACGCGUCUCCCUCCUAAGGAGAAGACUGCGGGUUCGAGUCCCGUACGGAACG

variants of: B1; assay: yeast fitness relative to wild type (ratio to wild type); higher = fitter; tRNA-Arg(CCU), competitive growth, 37 C, YPD
Fewer inactive variants are shown than the library holds.
Classification field: enter t for yeast fitness values not below 0.6, f for values below it.

mutant_id	class
C27U C55A G58A	f
U3C A15U U16C C34U A43G	f
A21C C27U G58C C62G	f
C11U C24G C61A G67A	f
U16C C55A A57C	f
C27G G50A G56C	f
U7A C34G G39A	f
C4U C22G U28A A36U G51A	f
U13C A20C C22U C60G	f
C5G C27U G41C	f
C5G G9C A36G C46U	f
C29U U47A A69U	t
U13C G67U	t
U13C A14G C24G G52A C55G A69U	f
A21C U26C A57U	f
C5G U7C C11G A40G A57U A70U	f
C24G A36C	f
C33U U47A G63A	f
A40U A45U G67C	f
C34G G48C G67A	f
G41A C46G G48A U54C C55U A70C	f
C22G C30G C55A U64C	f
C4G A40G A45G	f
A36C A45C C49U C55G C62A G68A	f
A65G C66G G68A	f
C11G A21U C24U C66U	t
U8G C29A A37U C49A	f
G17C U54C	f
C33G C66U	t
G25A U26C	t
A69U A70G	t
